Here, each record is paired with measured inhibition data.
# STUDY TARGET: Mannose-6-phosphate isomerase (Homo sapiens) (UniProt P34949)
# Sequence (P34949 whole entry, looked up): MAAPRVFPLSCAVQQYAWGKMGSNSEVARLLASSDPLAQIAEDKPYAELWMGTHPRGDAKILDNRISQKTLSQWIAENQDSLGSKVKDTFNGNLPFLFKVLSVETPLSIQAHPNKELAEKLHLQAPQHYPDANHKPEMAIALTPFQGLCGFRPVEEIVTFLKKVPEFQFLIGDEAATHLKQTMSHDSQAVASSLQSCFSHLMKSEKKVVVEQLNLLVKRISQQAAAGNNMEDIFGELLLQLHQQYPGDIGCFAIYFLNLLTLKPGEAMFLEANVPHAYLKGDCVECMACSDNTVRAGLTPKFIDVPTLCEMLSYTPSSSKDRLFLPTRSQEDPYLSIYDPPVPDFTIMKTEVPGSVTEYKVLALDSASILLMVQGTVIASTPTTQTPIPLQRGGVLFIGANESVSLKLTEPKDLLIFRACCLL
# ASSAY SUMMARY: inhibitors of human PMI, primary screen, biochemical, fluorescence intensity, coupled assay (AID 1209);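 further: plate controls were DMSO vehicle for no effect and wells lacking substrate for full effect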
# DETAILS: purified PMI enzyme, at 20 µM, hits give high values
Among all 190,000 compounds or so, about 810 (0.43%) were called active. The sample holds actives, similar compounds and a random draw of the others, so the mix is not that of the screen.
MEASURED QUANTITY: inhibition (%)

In [3]: df
Out[3]:
                                     smiles  result
0  CCOC(=O)Cc1csc(NC(=O)c2cc(=O)c3ccccc3o2)n1    -7.8
1      O=C(Nc1ccc2c(c1)OCCO2)c1ccc2ccccc2n1    -3.6
2  Cc1cc(C)nc(SCc2nnc(SCC(=O)Nc3cc(C(F)(F)F)ccc3Cl)o2)n1       3
3                   Fc1ccc2nc(N3CCCC3)sc2c1     8.5
4  COc1ccc(C(C)=O)c(OC(=O)c2ccc(OC)c(OC)c2)c1    17.5
5  COc1ccc(Cn2c(-c3ccc(Br)cc3)c[n+]3ccccc23)cc1    -1.6

###

# STUDY TARGET: Mannose-6-phosphate isomerase (Homo sapiens)
# ASSAY SUMMARY: inhibitors of human PMI, primary screen, biochemical, fluorescence intensity, coupled assay (AID 1209);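 further: plate controls were DMSO vehicle for no effect and wells lacking substrate for full effect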
# DETAILS: purified PMI enzyme, at 20 µM
Among all 190,000 compounds or so, about 810 (0.43%) were called active. No stated cut-off is given here; in the data, active means inhibition above about 50%; inactive means the rest. The full list was thinned out, with actives kept by preference.
Possible outcomes: active, inactive

>>> df
                                   molecule  assigned_class
0  CCc1cc(C(=O)Cc2cnn(-c3ccccc3)c2)c(O)cc1O        inactive
1  COc1cc(OC)c(C2CC(=O)N3CN(C)CSC3=C2C#N)cc1OC (stereo not given)          active
2          O=C(c1cnn(-c2ccccc2)c1)c1ccccc1O        inactive
3  COc1ccc(C2CC(C(F)(F)F)n3nc(C(=O)NCCCn4ccnc4)cc3N2)cc1OC (stereo not given)        inactive
4  COc1ccc(N2CSC3=C(C#N)C(c4ccc(OC)c(OC)c4)CC(=O)N3C2)c(OC)c1 (stereo not given)        inactive

###

# STUDY TARGET: Mannose-6-phosphate isomerase (Homo sapiens) (UniProt P34949)
# ASSAY SUMMARY: inhibitors of human PMI, primary screen, biochemical, fluorescence intensity, coupled assay (AID 1209);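 further: plate controls were DMSO vehicle for no effect and wells lacking substrate for full effect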
# DETAILS: purified PMI enzyme, at 20 µM, hits give high values
The whole screen tested about 190,000 compounds, of which about 810 (0.43%) were called active. The list comes from a sample in which actives are over-represented; it also holds close analogues and randomly drawn compounds.
MEASURED QUANTITY: inhibition (%)

                                    molecule  result
 0  CCC(OC(=O)c1cccs1)C(=O)NC1CCCCC1 (stereo unspecified)     3.4
 1              COc1cc2c(cc1OC)CC(=O)N(C)CC2     3.4
 2  Cc1cc(OC(C)C(N)=O)nc(-c2ccccc2)n1 (stereo unspecified)   -14.2
 3            O=C(CCc1ccccc1)NC(=S)NCc1ccco1     7.5
 4    CCN(CCC(=O)Nc1cc(OC)cc(OC)c1)Cc1ccccc1     6.5
 5                  CC1=Nc2cccc3cccc(c23)N1C    25.2
 6     COCCN=C1Sc2nc3ccc(C)cc3cc2CN1Cc1ccco1   -63.1
 7  COc1cc(C2NC(=O)NC(C)=C2C(=O)OC(C)C)ccc1OC(=O)c1ccco1 (stereo unspecified)       1
 8  Cc1ccc[n+](CC(=O)c2ccc(NC(=O)c3ccccc3)cc2)c1   -10.6
 9  CCCCCn1c(SCC(=O)OC)nc2c1c(=O)[nH]c(=O)n2C     0.2
10  CCN1C(=O)/C(=C2\SC(=S)N(c3c(C)n(C)n(-c4ccccc4)c3=O)C2=O)c2ccccc21    14.5
11  CN1CCc2nc3sc(C(=O)NCc4ccccc4)c(N)c3cc2C1   -30.8
12  CC(=O)c1cccc(NC(=O)NNC(=O)CCC(=O)Nc2ccc(C)c(C)c2)c1     -12
13         S=C(c1ccc(-c2ccccc2Cl)o1)N1CCCCC1    10.9
14  O=C(Cn1cnc2ccccc2c1=O)NCCC(=O)Nc1ccc2c(c1)OCO2    -1.6
15  C/C(N)=C(/C#N)C(=O)CSc1nn(-c2ccc(Cl)cc2)c(=S)s1     5.6
16  CN1C(=S)SC(N(O)C(=O)Nc2cccc3ccccc23)C1(C)C (stereo unspecified)    37.9
17    CCc1ccc(C(=O)COC(=O)CNC(=O)c2ccco2)cc1    -5.4
18  CC1(O)C(=O)c2ccccc2N(c2ccccc2)C1=O (stereo unspecified)    -6.5
19  Cc1cccc(N2CC(O)(c3cccs3)[N+]3=C2CCCC3)c1 (stereo unspecified)    -8.7
20           O=c1c2c([nH]c3ccc(Br)cc13)CCCC2   -15.1
21     Oc1c(/C=N/Nc2cccc3cccnc23)ccc2ccccc12   -30.2
22       Nc1nncn1C(=O)CCCN1C(=O)c2ccccc2C1=O     5.4
23  CC(=O)c1c(C)[nH]c(C(=O)OCC(=O)Nc2cc(Cl)ccc2[N+](=O)[O-])c1C     9.3
24  Cc1ccc(C)c(NC(=S)N(Cc2ccc(Cl)cc2)Cc2ccc(C(=O)O)cc2)c1    -4.3
25  C=CCN1C(=O)N/C(=C/c2ccccc2OCC(=O)Nc2ccc(F)cc2)C1=O     2.1
26  Oc1ccccc1C1=Nc2ncnn2C(c2ccccc2)C1 (stereo unspecified)   -40.5
27   COc1ccc(C)cc1NC(=O)c1nnn(CCc2ccccc2)c1N     8.1
28  CCOc1ccc(/C=C/C(O)=C2/C(=O)NC3(C)CC2c2ccccc2O3)cc1OC (stereo unspecified)   -21.3
29  CC(=O)N1C(=O)/C(=C2\SC(=S)N(c3c(C)n(C)n(-c4ccccc4)c3=O)C2=O)c2ccccc21    64.9
30     S=C(c1ccc(-c2cc(Cl)ccc2Cl)o1)N1CCOCC1    11.6
31                Cc1cc(=O)c2cc(Br)ccc2[nH]1     0.3
32            Cc1sc(/N=C/c2ccccc2O)c(C#N)c1C     0.9
33  C/C(=N\NC(N)=S)C1C2C3CC4C5CC(C42)C1C53 (stereo unspecified)     0.3
34         COc1cc(/C=C2\NC(=S)N(C)C2=O)ccc1O    -2.1
35  CCN1C(=O)C(F)(CC)C(=O)c2ccccc21 (stereo unspecified)     2.2
36                 CC(C)Sc1nc2ncnc(N)c2[nH]1    -8.9
37    O=C(NCCCn1ccnc1)c1cc(-c2ccc(Br)cc2)on1    -3.5
38     O=C(COC(=O)c1ccc(Br)cc1)NCc1ccc(F)cc1    -1.2
39  Cc1c(N2C(=O)/C(=C3/C(=O)N(C)c4ccccc43)SC2=S)c(=O)n(-c2ccccc2)n1C    11.1
40  CCN=C(NS(=O)(=O)c1ccc(Br)cc1)c1ccc(Cl)cc1    10.4
41  Cc1ccc(S(=O)(=O)N2CCCCC2)cc1NC(=O)Nc1ccc(Cl)cc1Cl    13.8
42         CCC(=O)Nc1ccc(OCc2nc3ccccc3s2)cc1      25
43  O=C(CSc1ncccn1)N1CCN(C(c2ccccc2)c2ccccc2)CC1    20.8
44    Cc1sc(/N=C/c2c(O)ccc3ccccc23)c(C#N)c1C      -6
45  Cc1cccc2cc3c(nc12)SC(=NCC1CCCO1)N(Cc1ccco1)C3 (stereo unspecified)     7.4

###

# STUDY TARGET: Mannose-6-phosphate isomerase (Homo sapiens)
# ASSAY SUMMARY: inhibitors of human PMI, primary screen, biochemical, fluorescence intensity, coupled assay (AID 1209);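 further: plate controls were DMSO vehicle for no effect and wells lacking substrate for full effect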
# DETAILS: purified PMI enzyme, at 20 µM
Screen size: about 190,000 compounds; about 810 (0.43%) were called active. No stated cut-off is given here; in the data, active means inhibition above about 50%; inactive means the rest. Shown is part of a subset that was picked to be rich in actives.
Possible outcomes: active, inactive

                                   compound  assigned_class
0  CCn1c(SCC(=O)N/N=C/c2ccc(O)c(OC)c2)nc2ccccc21          active
1  COc1cc(/C=N/NC(=O)C(Cc2c[nH]c3ccccc23)NC(=O)OCC(C)C)cc([N+](=O)[O-])c1OCc1ccccc1 (stereo not given)        inactive
2  CCc1c(C)sc(NC(=O)CSc2nc3c(c(C(F)(F)F)n2)CCc2ccccc2-3)c1C#N        inactive
3  CCn1c(SCC(=O)N/N=C/c2ccc(OC)c(OC)c2)nc2ccccc21        inactive
4  CCn1c(SCC(=O)N/N=C/c2cc(OC)c(O)c(OC)c2)nc2ccccc21        inactive
